Target: T1, PTH/PTHrP receptor (P1R), wild-type, full-length (human, UniProt Q03431 27-593)
T1 sequence (looked up): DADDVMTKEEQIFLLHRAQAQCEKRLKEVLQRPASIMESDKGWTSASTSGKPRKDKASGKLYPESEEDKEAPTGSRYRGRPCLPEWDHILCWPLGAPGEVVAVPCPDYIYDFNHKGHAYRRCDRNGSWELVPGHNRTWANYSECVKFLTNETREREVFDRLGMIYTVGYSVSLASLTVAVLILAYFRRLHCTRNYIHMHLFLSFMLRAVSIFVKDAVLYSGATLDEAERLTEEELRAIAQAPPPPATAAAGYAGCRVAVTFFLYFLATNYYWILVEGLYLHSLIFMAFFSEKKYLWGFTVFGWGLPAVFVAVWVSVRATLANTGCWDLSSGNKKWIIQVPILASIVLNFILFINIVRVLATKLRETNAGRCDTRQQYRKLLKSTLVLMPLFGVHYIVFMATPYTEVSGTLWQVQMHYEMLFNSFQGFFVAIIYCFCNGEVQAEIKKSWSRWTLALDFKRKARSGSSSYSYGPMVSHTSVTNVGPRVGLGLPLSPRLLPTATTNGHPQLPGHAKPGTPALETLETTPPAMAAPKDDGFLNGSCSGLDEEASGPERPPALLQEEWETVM
Test: cell-based or functional assay
Positions of bridges follow the written chain, without caps; N, C: chain ends. Non-standard residues stand in square brackets, D forms with d. No end group written: not given here. hArg = N=C(N)NCCCC[C@H](N)C(=O)O
Property measured: cAMP Emax (%)

INSERT INTO measurements (binder, property_measured, reported_measurement) VALUES
  ('AVAEIELMHK[hArg]AKW-NH2 (lactam 6-10; N-terminus assumed; SMILES CC[C@H](C)[C@H](NC(=O)[C@H](CCC(=O)O)NC(=O)[C@H](C)NC(=O)[C@@H](NC(=O)[C@H](C)N)C(C)C)C(=O)N[C@H]1CCC(=O)NCCCC[C@@H](C(=O)N[C@@H](CCCCNC(=N)N)C(=O)N[C@@H](C)C(=O)N[C@@H](CCCCN)C(=O)N[C@@H](Cc2c[nH]c3ccccc23)C(N)=O)NC(=O)[C@H](Cc2c[nH]cn2)NC(=O)[C@H](CCSC)NC(=O)[C@H](CC(C)C)NC1=O) [[(Glu^6, Lys^10)lac.]PTH(1-14), cyclized via a 6-10 lactam bridge]', 'cAMP Emax (%)', '52%'),
  ('AVAEIKLMHE[hArg]AKW-NH2 (N-terminus assumed; SMILES CC[C@H](C)[C@H](NC(=O)[C@H](CCC(=O)O)NC(=O)[C@H](C)NC(=O)[C@@H](NC(=O)[C@H](C)N)C(C)C)C(=O)N[C@@H](CCCCN)C(=O)N[C@@H](CC(C)C)C(=O)N[C@@H](CCSC)C(=O)N[C@@H](Cc1c[nH]cn1)C(=O)N[C@@H](CCC(=O)O)C(=O)N[C@@H](CCCCNC(=N)N)C(=O)N[C@@H](C)C(=O)N[C@@H](CCCCN)C(=O)N[C@@H](Cc1c[nH]c2ccccc12)C(N)=O) [[Lys^6, Glu^10]PTH(1-14)]', 'cAMP Emax (%)', '37%'),
  ('AVAEIKLMHE[hArg]AKW-NH2 (lactam 6-10; N-terminus assumed; SMILES CC[C@H](C)[C@H](NC(=O)[C@H](CCC(=O)O)NC(=O)[C@H](C)NC(=O)[C@@H](NC(=O)[C@H](C)N)C(C)C)C(=O)N[C@H]1CCCCNC(=O)CC[C@@H](C(=O)N[C@@H](CCCCNC(=N)N)C(=O)N[C@@H](C)C(=O)N[C@@H](CCCCN)C(=O)N[C@@H](Cc2c[nH]c3ccccc23)C(N)=O)NC(=O)[C@H](Cc2c[nH]cn2)NC(=O)[C@H](CCSC)NC(=O)[C@H](CC(C)C)NC1=O) [[(Lys^6, Glu^10)lac.]PTH(1-14)]', 'cAMP Emax (%)', '59%'),
  ('AVAEIQLMHQ[hArg]AKW-NH2 (N-terminus assumed; SMILES CC[C@H](C)[C@H](NC(=O)[C@H](CCC(=O)O)NC(=O)[C@H](C)NC(=O)[C@@H](NC(=O)[C@H](C)N)C(C)C)C(=O)N[C@@H](CCC(N)=O)C(=O)N[C@@H](CC(C)C)C(=O)N[C@@H](CCSC)C(=O)N[C@@H](Cc1c[nH]cn1)C(=O)N[C@@H](CCC(N)=O)C(=O)N[C@@H](CCCCNC(=N)N)C(=O)N[C@@H](C)C(=O)N[C@@H](CCCCN)C(=O)N[C@@H](Cc1c[nH]c2ccccc12)C(N)=O)', 'cAMP Emax (%)', '100%');

Continue with the binder presented below.
Req: Which cAMP Emax (%) value is on record for AVAEIELMHK[hArg]AKW-NH2 (N-terminus assumed; SMILES CC[C@H](C)[C@H](NC(=O)[C@H](CCC(=O)O)NC(=O)[C@H](C)NC(=O)[C@@H](NC(=O)[C@H](C)N)C(C)C)C(=O)N[C@@H](CCC(=O)O)C(=O)N[C@@H](CC(C)C)C(=O)N[C@@H](CCSC)C(=O)N[C@@H](Cc1c[nH]cn1)C(=O)N[C@@H](CCCCN)C(=O)N[C@@H](CCCCNC(=N)N)C(=O)N[C@@H](C)C(=O)N[C@@H](CCCCN)C(=O)N[C@@H](Cc1c[nH]c2ccccc12)C(N)=O) [[Glu^6, Lys^10]PTH(1-14) (linear)] ?
Resp: 52%
